# Test system: HL-60
# Assay name: NCI tumour cell line growth inhibition, 48 h
Active and inactive are the calls of the source. No stated cut-off is given here; in the data, active = GI50 up to about 1.1 µM and inactive = higher.
Outcomes: TRUE = active, FALSE = inactive

Molecule: C=C1C(O)C2(O)OCC34C(CC5C(C)=CC(=O)C(O)C5(C)C23)OC(=O)C(OC(=O)C/C=C(\C)CCCCC)C14 (centres undefined)
Measured target: HL-60
Class: TRUE
//
Molecule: COc1ccc(P2(=S)Oc3ccc(C(c4ccccc4)(c4ccccc4)c4ccccc4)cc3O2)cc1 (centres undefined)
Measured target: HL-60
Class: FALSE
//
Molecule: COC(=O)C1=C2Nc3ccccc3C23CCN2C(O)C4(CC5CC67CCOC6CCN6CCC8(c9cccc(OC)c9N(C4)C58O)C67)C4OCCC4(C1)C23 (centres undefined)
Measured target: HL-60
Class: FALSE
//
Molecule: COc1cc(C(=O)Oc2ccc3c(c2)OCO3)cc(OC)c1OC
Measured target: HL-60
Class: FALSE
//
Molecule: O=[N+]([O-])c1ccc(CSc2nncc3[nH]cnc23)cc1
Measured target: HL-60
Class: FALSE
//
Molecule: Cc1ccc(NC(=O)C(=O)CC(=O)C2CCOC2=O)c(C)c1 (centres undefined)
Measured target: HL-60
Class: FALSE
//
Molecule: CC(=O)Nc1ccc(OC2=CCN(C)CC2)cc1
Measured target: HL-60
Class: FALSE
//
Molecule: Cc1ncc([N+](=O)[O-])n1CC(O)Cn1ccnc1[N+](=O)[O-] (centres undefined)
Measured target: HL-60
Class: FALSE
//
Molecule: O=C(c1ccccc1)C1N=NCC1c1ccc([N+](=O)[O-])cc1 (centres undefined)
Measured target: HL-60
Class: FALSE
//
Molecule: O=C(NC(Cc1ccc(Br)cc1)C(=O)O)c1ccc(I)cc1 (centres undefined)
Measured target: HL-60
Class: FALSE
//
Molecule: CC1=C(C)C(=O)C(C2=CC(=O)C=CC2=O)=C(C2=CC(=O)C=CC2=O)C1=O
Measured target: HL-60
Class: FALSE
//
Molecule: NC(=O)OCC(COc1ccc(Cl)cc1)OC(=O)c1ccccc1Cl (centres undefined)
Measured target: HL-60
Class: FALSE
//
Molecule: O=c1c(-c2ccccc2)nnc2n(Cc3ccccc3)c3ccccc3n12
Measured target: HL-60
Class: FALSE
//
Molecule: CCc1nc(N)nc(N)c1-c1ccc2nn(-c3ccccc3)[n+]([O-])c2c1
Measured target: HL-60
Class: TRUE
//
Molecule: CC1=C(/C=C/C(=O)O)C(C)(C)CCC1
Measured target: HL-60
Class: FALSE
//
Molecule: Cc1ccc(S(=O)(=O)N(CC(O)COc2ccccc2)c2ccc(F)cc2F)cc1 (centres undefined)
Measured target: HL-60
Class: FALSE
//
Molecule: C/C(CC(=O)Nc1ccccc1C)=N/NS(=O)(=O)c1ccc(C)cc1
Measured target: HL-60
Class: FALSE
//
Molecule: COc1cc2c3c(cc(Cl)nc3c1OC)C(O)(CC(=O)c1ccccc1)C(=O)N2 (centres undefined)
Measured target: HL-60
Class: FALSE
//
Molecule: N#CC(=S)Nc1cccc(Cl)c1
Measured target: HL-60
Class: FALSE
//
Molecule: CC(C)(C)C1CCN(C(=O)c2ccccc2)CC1
Measured target: HL-60
Class: FALSE
//
Molecule: CCOC(=O)CCC(NC(=O)c1ccc(Nc2cnc3ccc(C(F)(F)F)cc3n2)cc1)C(=O)OCC (centres undefined)
Measured target: HL-60
Class: FALSE
//
Molecule: NS(=O)(=O)c1ccc(C(=O)O)cc1 [CARZENIDE]
Measured target: HL-60
Class: FALSE
//
Molecule: CC(=O)OCCCCN1C(=O)CSc2ccccc21
Measured target: HL-60
Class: FALSE
//
Molecule: CCOC(=O)CSc1nnc(CSc2nc(-c3ccccc3)c(-c3ccccc3)[nH]2)n1-c1ccccc1
Measured target: HL-60
Class: FALSE
//
Molecule: COc1ccc2cc1Oc1ccc(cc1)CC1c3c(cc(OC)c4c3Oc3cc5c(cc3O4)CCNC5C2)CCN1C (centres undefined)
Measured target: HL-60
Class: FALSE
//
Molecule: CC(C)C(NC(=O)Oc1ccccc1)C(=O)NC1c2c(Br)sc(Br)c2C(=O)C1O (centres undefined)
Measured target: HL-60
Class: FALSE
//
Molecule: C/C(CC(=O)Nc1cc(C)ccc1C)=N\NC(=O)c1ccncc1
Measured target: HL-60
Class: FALSE
//
Molecule: NC(=O)C(=CNC(=S)c1ccncc1)C(N)=O
Measured target: HL-60
Class: FALSE
//
Molecule: Cc1ccc2c(n1)C(=O)c1cc(C)c(C)cc1C2=O
Measured target: HL-60
Class: FALSE

----------
# Tested on: OVCAR-5
# Assay name: NCI tumour cell line growth inhibition, 48 h
Activity calls are given as the source filed them. Cut-off read from the data, not from the text of the source: active = GI50 up to about 1.1 µM and inactive = higher.

Compound: C[N+]1(C)[C@@H]2CC[C@H]1C[C@@H](OC(=O)C(CO)c1ccccc1)C2 (stereo not given in full) [ATROPINE METHYLBROMIDE]
Measured target: OVCAR-5
GI50: > 100 µM (inactive)
--
Compound: CC(=O)N1C(C(=O)NC2CCCCC2)CSC1c1ccccc1 (stereo not given)
Measured target: OVCAR-5
GI50: > 100 µM (inactive)
--
Compound: CC(=O)Oc1ccc2c(C)cc(=O)oc2c1
Measured target: OVCAR-5
GI50: > 100 µM (inactive)
--
Compound: O=C1/C(=C/c2ccccc2)CNC/C1=C\c1ccccc1
Measured target: OVCAR-5
GI50: 2.44 µM (inactive)
--
Compound: O=P(NC12CC3CC(CC(C3)C1)C2)(N1CC1)N1CC1
Measured target: OVCAR-5
GI50: > 100 µM (inactive)

----------
# System: OVCAR-4
# Assay name: NCI tumour cell line growth inhibition, 48 h
Activity calls are given as the source filed them. Rule as the data show it: active = GI50 up to about 1.1 µM and inactive = higher.
The following molecules are shown together with reported GI50 values.

Molecule: Cc1no[n+]([O-])c1/C=N/NS(=O)(=O)c1ccccc1
GI50: > 100 µM (inactive)
//
Molecule: COC1=C(C)C(=O)C2C(C1=O)C(c1ccc(OC)c(OC)c1)[C@H]2C (some centres undefined)
GI50: > 100 µM (inactive)
//
Molecule: CC1(O)C(C)(O)C2(C)O[Te]3(OC12C)OC1(C)C(C)(O)C(C)(O)C1(C)O3 (centres undefined)
GI50: 24.3 µM (inactive)
//
Molecule: CC1=C(C(=O)Nc2cc(=O)n(C)c(=O)n2C)C(c2cccc([N+](=O)[O-])c2)C(C(=O)Nc2cc(=O)n(C)c(=O)n2C)=C(C)N1
GI50: > 100 µM (inactive)
//
Molecule: Cc1cccc(NC(=S)Nc2ccc([N+](=O)[O-])cc2)n1
GI50: > 100 µM (inactive)
//
Molecule: COC(=O)c1cc2c3c(c1)Oc1cc(C(=O)OC)cc4c1C3c1c(cc(C(=O)OC)cc1O4)O2
GI50: 34 µM (inactive)
//
Molecule: NNC(=O)C(=O)N/N=C1\CCC(=O)CC1C(=O)CCC(=O)Nc1ccc(Cl)cc1 (centres undefined)
GI50: > 100 µM (inactive)
//
Molecule: CC1=C(C(=O)NNC(=O)CC#N)CC(C(=O)NNC(=O)CC#N)=C(C)N1
GI50: > 100 µM (inactive)
//
Molecule: C/C(=C1/N=C(c2cc([N+](=O)[O-])ccc2Cl)N(c2ccc(Br)cc2)C1=O)c1ccc(N(CCC#N)CCC#N)cc1C
GI50: 38.8 µM (inactive)
//
Molecule: O=NN(CCCl)C(=O)N[C@H]1CC[C@H](CC(=O)O)CC1
GI50: > 100 µM (inactive)
//
Molecule: COc1cccc(C23CCCC(C2)NCC3Br)c1OC (centres undefined)
GI50: 35 µM (inactive)
//
Molecule: NC(=O)C(=CNC(=S)c1ccncc1)C(N)=O
GI50: > 100 µM (inactive)
//
Molecule: COc1ccc(C2=C(N)c3ccccc3C2=O)cc1
GI50: 96.4 µM (inactive)
//
Molecule: Cc1ccc(S(=O)(=O)N(CC(O)COc2ccccc2)c2ccc(F)cc2F)cc1 (centres undefined)
GI50: 11.6 µM (inactive)
//
Molecule: CC(=O)N(CC(=O)C(=O)NNc1ccoc1)c1ccc(Cl)cc1
GI50: > 100 µM (inactive)
//
Molecule: S=C(Nc1ccccc1)Nc1[nH]c(=S)sc1-c1nc2ccccc2[nH]1
GI50: 15.2 µM (inactive)
//
Molecule: CCc1nc(N)nc(N)c1-c1ccc2nn(-c3ccccc3)[n+]([O-])c2c1
GI50: 11.9 µM (inactive)
//
Molecule: CC(C)(C)OC(=O)NCCCCC(N)NC(=O)c1ccccc1 (centres undefined)
GI50: > 100 µM (inactive)
//
Molecule: O=P1(N(CCCl)CCCl)Oc2ccc(Cl)cc2Sc2c(ccc(Cl)c2Cl)O1 (centres undefined)
GI50: 23.9 µM (inactive)

----------
The following molecules are shown together with reported GI50 values.
# Test system: SF-268
# Assay name: NCI tumour cell line growth inhibition, 48 h
Active and inactive are the calls of the source. Cut-off read from the data, not from the text of the source: active = GI50 up to about 1.1 µM and inactive = higher.

Molecule: CC(SC(=S)N(C)C)C(=O)Nc1nnc(-c2ccc(Cl)cc2)o1 (centres undefined)
Measured target: SF-268
GI50: 29 µM (inactive)

Molecule: Cc1c(C(=O)CC(=O)C(=O)Nc2ccc(Cl)c(Cl)c2)[n+]([O-])c2ccccc2[n+]1[O-]
Measured target: SF-268
GI50: 29.1 µM (inactive)

Molecule: Cn1ccnc1CCc1c(Cl)cccc1Cl
Measured target: SF-268
GI50: > 100 µM (inactive)

Molecule: CC1=C(C)C(=O)C(C2=CC(=O)C=CC2=O)=C(C2=CC(=O)C=CC2=O)C1=O
Measured target: SF-268
GI50: > 74.6 µM (inactive)

Molecule: C=CCc1cccc2cc(C(=O)NC3CCCCC3)c(=N)oc12
Measured target: SF-268
GI50: 17.7 µM (inactive)

Molecule: COc1cc(NS(C)(=O)=O)ccc1Nc1cc(C)nc2ccc3[nH]ccc3c12
Measured target: SF-268
GI50: > 100 µM (inactive)

Molecule: Cc1nn(-c2ccccc2)c(C)c1/C=N/NC(=O)c1sc(=S)n(-c2ccc(Cl)cc2)c1N
Measured target: SF-268
GI50: 9.57 µM (inactive)

Molecule: O=c1cccc2n1CC1CNC[C@H]2C1
Measured target: SF-268
GI50: > 100 µM (inactive)

Molecule: NC(=S)N1N=C2c3ccccc3CCC[C@H]2[C@@H]1c1ccccc1
Measured target: SF-268
GI50: 3 µM (inactive)

Molecule: O=C(CCCN1CCC2(CC1)CC(=O)N(N1CCOCC1)C2=O)c1ccc(F)cc1
Measured target: SF-268
GI50: > 100 µM (inactive)

Molecule: O=C(O)c1c[nH]c2c(Sc3ccccc3)nccc2c1=O
Measured target: SF-268
GI50: > 100 µM (inactive)

Molecule: O=C1CCC2(CC1)SCCCS2
Measured target: SF-268
GI50: > 100 µM (inactive)

Molecule: COC(=O)C1=C2Nc3ccccc3C23CCN2C(O)C4(CC5CC67CCOC6CCN6CCC8(c9cccc(OC)c9N(C4)C58O)C67)C4OCCC4(C1)C23 (centres undefined)
Measured target: SF-268
GI50: 26.1 µM (inactive)

Molecule: C/C(=C1/N=C(c2cc([N+](=O)[O-])ccc2Cl)N(c2ccc(Br)cc2)C1=O)c1ccc(N(CCC#N)CCC#N)cc1C
Measured target: SF-268
GI50: 61.7 µM (inactive)

Molecule: CCn1nc(C)c2c1C(=O)NC(C)C(=O)N2 (centres undefined)
Measured target: SF-268
GI50: > 100 µM (inactive)

Molecule: O=C(CC(=O)c1cccc([N+](=O)[O-])c1)C(=O)Nc1nc([N+](=O)[O-])cs1
Measured target: SF-268
GI50: > 100 µM (inactive)

Molecule: Cc1ccnc(NS(=O)(=O)c2ccc(NC(=O)c3ccc4nc5ccccc5c(Nc5ccc(S(=O)(=O)Nc6nccc(C)n6)cc5)c4c3)cc2)n1
Measured target: SF-268
GI50: 28.3 µM (inactive)

Molecule: Cc1cccc(NC(=S)Nc2ccc([N+](=O)[O-])cc2)n1
Measured target: SF-268
GI50: > 100 µM (inactive)

Molecule: N=c1oc2ccc(Cl)cc2cc1C(=O)Nc1ccccc1
Measured target: SF-268
GI50: > 76 µM (inactive)

Molecule: CC(=O)OC1CCC2(C)C(=CCC3C2CCC2(C)C(C(C)C(=O)O)CCC32)C1 (centres undefined)
Measured target: SF-268
GI50: > 100 µM (inactive)

Molecule: Cc1ccc(C2CC(=O)CC(c3ccc(C)cc3)C23C(=O)NC(=O)NC3=O)cc1 (centres undefined)
Measured target: SF-268
GI50: > 100 µM (inactive)

Molecule: COc1ccc(C2CC(c3ccc(NS(=O)(=O)c4cc([N+](=O)[O-])ccc4C)cc3)=NN2S(=O)(=O)c2cc([N+](=O)[O-])ccc2C)cc1 (centres undefined)
Measured target: SF-268
GI50: 22.8 µM (inactive)

Molecule: CC12CCC3(OCCO3)C(OC(=O)c3ccccc3)=C1CCC21OCCO1 (centres undefined)
Measured target: SF-268
GI50: > 100 µM (inactive)

Molecule: CO[C@H](c1ccccc1)[C@H](C)N(C)c1ccc2ccccc2c1C1=NC(C)(C)CO1
Measured target: SF-268
GI50: 18.4 µM (inactive)

Molecule: NNC(=O)C(=O)N/N=C1\CCC(=O)CC1C(=O)CCC(=O)Nc1ccc(Cl)cc1 (centres undefined)
Measured target: SF-268
GI50: > 100 µM (inactive)

Molecule: CC(C)(C)OC(=O)[C@@H]1CCC(=O)N1C1(c2ccccc2)c2ccccc2-c2ccccc21
Measured target: SF-268
GI50: > 100 µM (inactive)

Molecule: CCC(C)(C)c1ccc(Oc2cccc(C(=O)O)c2)cc1
Measured target: SF-268
GI50: 46.8 µM (inactive)

Molecule: COc1cc(/C=C2\Cc3ccccc3C2=O)cc(OC)c1OC
Measured target: SF-268
GI50: > 100 µM (inactive)

Molecule: O/N=C1/C(=C/c2ccc(Cl)c(Cl)c2)CCCC1C(NO)c1ccc(Cl)c(Cl)c1 (centres undefined)
Measured target: SF-268
GI50: 23.5 µM (inactive)

Molecule: CCCCCCCCCCCCCC[C@@H](O)[C@H]1CC[C@H]([C@H]2CC[C@H]([C@H](O)CCCCCC[C@@H](O)CC3=C[C@H](C)OC3=O)O2)O1
Measured target: SF-268
GI50: > 25 µM (inactive)

Molecule: CC(C(=O)c1ccc(Cl)cc1)C1OC(=O)C(Cl)=C1Cl (centres undefined)
Measured target: SF-268
GI50: 30.3 µM (inactive)

Molecule: Nc1ccc(S(=O)(=O)c2ccc(/N=[N+](\[O-])c3ccc(S(=O)(=O)c4ccc(N)cc4)cc3)cc2)cc1
Measured target: SF-268
GI50: 15 µM (inactive)

Molecule: CCOP(=O)(OCC)C(F)(F)Cc1cnc(C)c2c1COC(C)(C)O2
Measured target: SF-268
GI50: > 10 µM (inactive)

Molecule: CC1(C)[C@H]2Cc3cc4nc5ccccn5c4cc3[C@@H]1C2
Measured target: SF-268
GI50: 17.6 µM (inactive)

Just for reference, ChEMBL document CHEMBL1201862 is where these values come from.
